Test: xn = mol fraction of the nth substance listed
Conditions: 318.15 K; 100.5 kPa; Liquid; Capillary tube (Ostwald / Ubbelohde) method; x1 = 0.1
# maps each entry to its viscosity
Metric name: viscosity (mPa·s)

compound="COC(=O)c1ccccc1 [methyl benzoate] + CCO" uom=mPa·s measured_result=0.77
compound="CCC(=O)OCc1ccccc1 [benzyl propanoate] + CCO" uom=mPa·s measured_result=0.795
compound="CCOC(=O)CC(C)=O [ethyl 3-oxobutanoate] + CCO" uom=mPa·s measured_result=0.713
compound="CCOC(=O)CC(C)C [ethyl 3-methylbutanoate] + CCO" uom=mPa·s measured_result=0.668
compound="CC(=O)OCc1ccccc1 [benzyl ethanoate] + CCO" uom=mPa·s measured_result=0.779

====

Test: xn = mol fraction of the nth substance listed
Conditions: 318.15 K; 100.5 kPa; Liquid; Capillary tube (Ostwald / Ubbelohde) method; x1 = 0.25
Metric name: viscosity (mPa·s)

compound="CCOC(=O)CC(C)C [ethyl 3-methylbutanoate] + CCO" metric_name=viscosity uom=mPa·s measured_result=0.6
compound="CCOC(=O)CC(C)=O [ethyl 3-oxobutanoate] + CCO" metric_name=viscosity uom=mPa·s measured_result=0.721
compound="COC(=O)c1ccccc1 [methyl benzoate] + CCO" metric_name=viscosity uom=mPa·s measured_result=0.814
compound="CC(=O)OCc1ccccc1 [benzyl ethanoate] + CCO" metric_name=viscosity uom=mPa·s measured_result=0.846
compound="CCC(=O)OCc1ccccc1 [benzyl propanoate] + CCO" metric_name=viscosity uom=mPa·s measured_result=0.879

====

Test: xn = mol fraction of the nth substance listed
Conditions: 318.15 K; 100.5 kPa; Liquid; x1 = 0.75
Reported mass density values for a set of compounds
Metric name: mass density (kg/m3)

compound="CCOC(=O)c1ccccc1O [ethyl 2-hydroxybenzoate] + CCO" metric_name="mass density" measured_result=1066.31
compound="CCC(=O)OCc1ccccc1 [benzyl propanoate] + CCO" metric_name="mass density" measured_result=982.93
compound="CCOC(=O)CC(C)C [ethyl 3-methylbutanoate] + CCO" metric_name="mass density" measured_result=830.44
compound="CCOC(=O)CC(C)=O [ethyl 3-oxobutanoate] + CCO" metric_name="mass density" measured_result=970.82
compound="COC(=O)c1ccccc1 [methyl benzoate] + CCO" metric_name="mass density" measured_result=1025.13
compound="CC(=O)OCc1ccccc1 [benzyl ethanoate] + CCO" metric_name="mass density" measured_result=1000.51

====

Experiment: xn = mol fraction of the nth substance listed
Conditions: 298.15 K; 100.5 kPa; Liquid; x1 = 0.4
Some molecules, each annotated with its measured mass density.
Metric name: mass density (kg/m3)

molecule="COC(=O)c1ccccc1 [methyl benzoate] + CCO" measured_result=963.7
molecule="CCOC(=O)CC(C)C [ethyl 3-methylbutanoate] + CCO" measured_result=831.42
molecule="CCOC(=O)CC(C)=O [ethyl 3-oxobutanoate] + CCO" measured_result=926.37
molecule="CC(=O)OCc1ccccc1 [benzyl ethanoate] + CCO" measured_result=952
molecule="CCC(=O)OCc1ccccc1 [benzyl propanoate] + CCO" measured_result=943.55
molecule="CCOC(=O)c1ccccc1O [ethyl 2-hydroxybenzoate] + CCO" measured_result=1000.81

====

Test: xn = mol fraction of the nth substance listed
Details: 308.15 K; 100.5 kPa; Liquid; Capillary tube (Ostwald / Ubbelohde) method; x1 = 0.5
Numbers after ± are expanded uncertainties.
Each record here notes measured viscosity.
Metric name: viscosity

compound="CCOC(=O)CC(C)C [ethyl 3-methylbutanoate] + CCO" measured_result="0.638 ± 0.013 mPa·s"
compound="CCC(=O)OCc1ccccc1 [benzyl propanoate] + CCO" measured_result="1.263 ± 0.014 mPa·s"
compound="CC(=O)OCc1ccccc1 [benzyl ethanoate] + CCO" measured_result="1.182 ± 0.014 mPa·s"
compound="CCOC(=O)CC(C)=O [ethyl 3-oxobutanoate] + CCO" measured_result="0.947 ± 0.013 mPa·s"
compound="COC(=O)c1ccccc1 [methyl benzoate] + CCO" measured_result="1.091 ± 0.014 mPa·s"
